# MIC annotations
test system: Mycobacterium smegmatis ATCC 19420; assay: Broth microdilution MIC, M. smegmatis; type: cell-based; conditions: Mycolicibacterium smegmatis, ATCC19420, M. smegmatis ATCC 19420; read-out: MIC Mycobacterium smegmatis ATCC 19420
property.label: MIC (µg/mL)

molecule="COc1ccccc1NC(=O)C(Cc1ccccc1)NC(=O)c1ccccc1C (stereo not shown) [IX-68]" value_units=µg/mL observed=0.39
molecule="O=C(NC(Cc1ccccc1)C(=O)Nc1cc(F)ccc1N1CC2CCCNC2C1)c1ccccc1F (stereo not shown) [IX-307]" value_units=µg/mL observed=6.12
molecule="O=C(NC(Cc1ccccc1)C(=O)Nc1cccc2c1OCO2)c1cccs1 (stereo not shown) [IX-98]" value_units=µg/mL observed=0.195
molecule="O=C(NC(Cc1ccccc1)C(=O)Nc1cccc2sccc12)c1ccccc1 (stereo not shown) [II-46]" value_units=µg/mL observed=0.195
molecule="O=C(N[C@@H](Cc1ccccc1)C(=O)Nc1cc(F)ccc1N1CCNCC1)c1ccccc1F (racemic) [IX-214b]" value_units=µg/mL observed=6.25
molecule="O=C(NC(Cc1ccccc1)C(=O)Nc1cccc2ccsc12)c1ccccc1 (stereo not shown) [II-47]" value_units=µg/mL observed=1.56
molecule="Cc1ccccc1NC(=O)C(Cc1ccccc1)NC(=O)c1ccccc1Br (stereo not shown) [I-102]" value_units=µg/mL observed=3.12
molecule="Cc1ccccc1C(=O)NC(Cc1ccccc1)C(=O)Nc1cccc2[nH]ncc12 (stereo not shown) [IX-191]" value_units=µg/mL observed=0.39
molecule="O=C(NC(Cc1ccccc1)C(=O)Nc1cccc2cc[nH]c12)c1ccccc1Cl (stereo not shown) [IX-95]" value_units=µg/mL observed=0.39
molecule="CC(=O)Oc1ccc(CC(NC(=O)c2ccccc2C)C(=O)Nc2ccccc2N2CCOCC2)cc1 (stereo not shown) [IX-181]" value_units=µg/mL observed=0.097
